Each recorded value in this set is attributed to patent US6441023B1.

- targetEntity: MMP 1 (Homo sapiens, UniProt P03956)
- Construct: human recombinant fibroblast collagenase (truncated, mw=18,828, WAR, Radnor)
- Sequence (P03956 100-269 limits assumed): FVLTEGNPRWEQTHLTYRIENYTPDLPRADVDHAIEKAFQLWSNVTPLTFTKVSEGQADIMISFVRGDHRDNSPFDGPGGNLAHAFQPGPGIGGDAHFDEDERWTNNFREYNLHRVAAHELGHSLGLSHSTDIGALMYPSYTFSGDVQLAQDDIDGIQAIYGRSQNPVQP
- experimentDescription: In vitro collagenase assay (human recombinant fibroblast collagenase)
- testConditions: read-out: MMP 1 IC 50
// boundary case: IC50 equal to 500 nM maps to Not satisfied; strictly smaller maps to Satisfied

Would you please look over these solved cases?
>>> print(df.to_string())
                                   compound                          targetentity      classname
0  CCCCOc1ccc(S(=O)(=O)C2(C(=O)NO)CCN(Cc3ccc(OCCN4CCCCC4)cc3)CC2)cc1 [Example 242]  MMP 1 (Homo sapiens, UniProt P03956)  Not satisfied
1  O=C(NO)C1(S(=O)(=O)c2ccc(Oc3ccc(Cl)cc3)cc2)CCN(Cc2ccccc2)CC1 [Example 252]  MMP 1 (Homo sapiens, UniProt P03956)  Not satisfied
2  CCCCN1CCC(C(=O)NO)(S(=O)(=O)c2ccc(Oc3ccc(Cl)cc3)cc2)CC1 [Example 251]  MMP 1 (Homo sapiens, UniProt P03956)  Not satisfied
3  CCCCOc1ccc(S(=O)(=O)C2(C(=O)NO)CCN(Cc3ccncc3)CC2)cc1 [Example 269]  MMP 1 (Homo sapiens, UniProt P03956)  Not satisfied
4  COc1ccc(S(=O)(=O)C(CC=C(C)C)(CC=C(C)C)C(=O)NO)cc1 [Example 79]  MMP 1 (Homo sapiens, UniProt P03956)      Satisfied

Lab log: compare recorded IC50 with 500 nM; is it strictly lower for CCCCCC(C(=O)NO)[S+]([O-])c1ccc(OC)cc1 (single isomer, unassigned) [Example 81b] ?
Not satisfied

Criterion: IC50 strictly below 500 nM. Is it met by COc1ccc(S(=O)(=O)C2(C(=O)NO)CCN(Cc3ccc(-c4ccccn4)cc3)CC2)cc1 [Example 262] ?
Satisfied

###

For each entry below, report its IC50 value.
- targetEntity: TACE (Homo sapiens, UniProt P78536)
- Construct: purchased Immunex
- Sequence (P78536 215-824): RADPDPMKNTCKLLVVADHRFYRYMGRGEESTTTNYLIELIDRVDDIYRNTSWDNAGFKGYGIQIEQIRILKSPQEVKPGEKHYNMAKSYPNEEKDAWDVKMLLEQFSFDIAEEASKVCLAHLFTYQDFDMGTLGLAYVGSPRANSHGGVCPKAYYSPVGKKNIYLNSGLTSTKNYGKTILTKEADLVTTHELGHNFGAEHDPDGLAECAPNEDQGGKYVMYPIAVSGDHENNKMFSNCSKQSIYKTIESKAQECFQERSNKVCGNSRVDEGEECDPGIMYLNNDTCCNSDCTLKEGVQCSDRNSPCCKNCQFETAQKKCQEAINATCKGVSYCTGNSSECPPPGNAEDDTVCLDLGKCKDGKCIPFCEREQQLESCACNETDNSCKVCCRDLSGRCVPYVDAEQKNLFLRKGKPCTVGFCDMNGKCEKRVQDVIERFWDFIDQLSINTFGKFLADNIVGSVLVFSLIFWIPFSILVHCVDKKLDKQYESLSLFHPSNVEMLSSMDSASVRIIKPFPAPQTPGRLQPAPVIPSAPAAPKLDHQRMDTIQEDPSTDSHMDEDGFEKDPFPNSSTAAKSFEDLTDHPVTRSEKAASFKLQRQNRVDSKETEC
- experimentDescription: Procedure for measuring TACE inhibition
- Type: biochemical
- testConditions: read-out: TACE IC 50
Answers are plain numbers, in nM.

# count of solved cases: 3
                                   compound                         targetentity  val
0  CCCCCC(C(=O)NO)[S+]([O-])c1ccc(OC)cc1 (single isomer, unassigned) [Example 81b]  TACE (Homo sapiens, UniProt P78536)  228
1  CCCCOc1ccc(S(=O)(=O)C2(C(=O)NO)CCN(Cc3ccncc3)CC2)cc1 [Example 269]  TACE (Homo sapiens, UniProt P78536)  296
2  COc1ccc(S(=O)(=O)C2(C(=O)NO)CCN(Cc3ccc(-c4ccccn4)cc3)CC2)cc1 [Example 262]  TACE (Homo sapiens, UniProt P78536)  298

Continue with the compound presented below.
# compound CCCCOc1ccc(S(=O)(=O)C2(C(=O)NO)CCN(CCCC)CC2)cc1 [Example 246] ; its IC50 = 880

###

- targetEntity: UniProtKB P14780
- experimentDescription: In vitro gelatinase assay (human neutrophil gelatinase B)
- testConditions: read-out: MMP 9 IC 50
attributeMeasured: pIC50
Numbers only, as −log10 of the molar value.

Below, each entry is followed by its recorded pIC50 result.
>>> df
                                   compound  attributemeasured   val
0  COc1ccc(S(=O)(=O)C2(C(=O)NO)CCN(Cc3ccc(-c4ccccn4)cc3)CC2)cc1              pIC50  8.21
1  CCCCCC(C(=O)NO)[S+]([O-])c1ccc(OC)cc1 (single isomer, unassigned) [Example 81b]              pIC50  6.81
2  CCCCOc1ccc(S(=O)(=O)C2(C(=O)NO)CCN(Cc3cccc(OC)c3)CC2)cc1              pIC50  8.54
3  COc1ccc(S(=O)(=O)C2(C(=O)NO)CCN(Cc3ccc(-c4cccs4)cc3)CC2)cc1              pIC50  7.96
4  Cc1ccc(CN2CCC(C(=O)NO)(S(=O)(=O)c3ccc(OCc4ccc(Cl)cc4)cc3)CC2)cc1              pIC50  8.22

Each of the following entries comes with a recorded value; kindly state pIC50 for each.
1. COc1ccc(S(=O)(=O)C(CCCCOc2ccccc2)(Cc2cccnc2)C(=O)NO)cc1 (centres unmarked)
2. CCN1CCC(C(=O)NO)(S(=O)(=O)c2ccc(Oc3ccc(Cl)cc3)cc2)CC1

[7.54, 8.80]

###

I'd appreciate it if you could supply pIC50 values for the items below.
- targetEntity: MMP 9 (Homo sapiens)
- Sequence (P14780 94-707): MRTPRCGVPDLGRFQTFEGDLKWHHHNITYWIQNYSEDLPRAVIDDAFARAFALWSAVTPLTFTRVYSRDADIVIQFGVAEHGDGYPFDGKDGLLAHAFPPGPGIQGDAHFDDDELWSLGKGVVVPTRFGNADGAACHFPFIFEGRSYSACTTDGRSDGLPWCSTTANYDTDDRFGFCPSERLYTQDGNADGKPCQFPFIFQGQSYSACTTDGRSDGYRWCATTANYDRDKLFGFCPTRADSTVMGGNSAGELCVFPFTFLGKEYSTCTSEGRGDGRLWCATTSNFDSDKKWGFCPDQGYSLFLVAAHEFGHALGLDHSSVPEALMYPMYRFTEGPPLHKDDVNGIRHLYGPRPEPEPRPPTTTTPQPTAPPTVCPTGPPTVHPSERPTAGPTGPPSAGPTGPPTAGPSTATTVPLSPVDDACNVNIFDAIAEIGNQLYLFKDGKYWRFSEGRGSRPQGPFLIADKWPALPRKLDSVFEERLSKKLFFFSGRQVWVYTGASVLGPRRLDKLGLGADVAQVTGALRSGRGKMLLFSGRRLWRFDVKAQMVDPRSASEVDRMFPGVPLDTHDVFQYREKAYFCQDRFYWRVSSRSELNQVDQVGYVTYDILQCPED
- experimentDescription: In vitro gelatinase assay (human neutrophil gelatinase B)
- testConditions: read-out: MMP 9 IC 50
One number for each entry, as −log10 of the molar value.

Some solved cases for reference:
                                   compound          targetentity  attributemeasured   val
0  CCCCOc1ccc(S(=O)(=O)C2(C(=O)NO)CCN(Cc3ccncc3)CC2)cc1  MMP 9 (Homo sapiens)              pIC50  8.66
1  CN1CCC(C(=O)NO)(S(=O)(=O)c2ccc(Oc3ccc(Cl)cc3)cc2)CC1  MMP 9 (Homo sapiens)              pIC50  8.70
2  CCCCN1CCC(C(=O)NO)(S(=O)(=O)c2ccc(Oc3ccc(Cl)cc3)cc2)CC1  MMP 9 (Homo sapiens)              pIC50  9.10
3  CCCCN1CCC(C(=O)NO)(S(=O)(=O)c2ccc(OCCC(C)C)cc2)CC1  MMP 9 (Homo sapiens)              pIC50  8.14
4  CN1CCC(C(=O)NO)(S(=O)(=O)c2ccc(OCc3ccc(Cl)cc3)cc2)CC1  MMP 9 (Homo sapiens)              pIC50  8.54
5  COc1ccc(SC(C)(Cc2ccccc2)C(=O)NO)cc1 (stereo not shown)  MMP 9 (Homo sapiens)              pIC50  6.25

Hi there! I need pIC50 for each item below, if you can.
1. CCCCOc1ccc(S(=O)(=O)C2(C(=O)NO)CCN(Cc3ccc(Cl)c(Cl)c3)CC2)cc1
2. CCCCOc1ccc(S(=O)(=O)C2(C(=O)NO)CCN(Cc3ccc(OCCN4CCCCC4)cc3)CC2)cc1
3. CCC(CC)COc1ccc(S(=O)(=O)C2(C(=O)NO)CCN(Cc3ccccc3)CC2)cc1
4. CCCCOc1ccc(S(=O)(=O)C2(C(=O)NO)CCN(CCCC)CC2)cc1

[7.69, 8.70, 7.84, 7.55]
